Data origin, for the record: the NIST ThermoML archive (doi:10.1016/j.jct.2017.11.017)

# Procedure summary: activity coefficient (dimensionless); of the first substance listed, at infinite dilution; xn = mol fraction of the nth substance listed
# Experimental parameters: 328.15 K; 101.33 kPa; Liquid; Chromatography; x1 = 0
Param threshold (3) applies to activity coefficient; output yes when value >= threshold, no when value < threshold.

CCCCO [butan-1-ol] + C[n+]1ccn(CCCO)c1.N#CN=C=[N-]	no
CCCCCO [pentan-1-ol] + C[N+]1(CCCO)CCOCC1.N#C[N-]C#N	yes

# check: activity coefficient of CCC(C)O (stereo not given) [butan-2-ol] + C[n+]1ccn(CCCO)c1.N#CN=C=[N-] is greater than or equal to 3
no

# check: activity coefficient of C#CCCCCCC [1-octyne] + C[N+]1(CCCO)CCOCC1.N#C[N-]C#N is greater than or equal to 3
yes

# check: activity coefficient of CCC(C)O (stereo not given) [butan-2-ol] + C[N+]1(CCCO)CCOCC1.N#C[N-]C#N is greater than or equal to 3
yes

* * *

What activity coefficient was measured for each of the following?
# Procedure summary: activity coefficient (dimensionless); of the first substance listed, at infinite dilution; xn = mol fraction of the nth substance listed
# Experimental parameters: 328.15 K; 101.33 kPa; Liquid; Chromatography; x1 = 0
Numbers only.

See these solved cases before continuing.
CC1CCCCC1 [methylcyclohexane] + C[n+]1ccn(CCCO)c1.N#CN=C=[N-]	154
CCCC=O [butanal] + C[N+]1(CCCO)CCOCC1.N#C[N-]C#N	4.49
CCCCCCCC [octane] + C[N+]1(CCCO)CCOCC1.N#C[N-]C#N	1260
CCC(C)CC [3-methylpentane] + C[n+]1ccn(CCCO)c1.N#CN=C=[N-]	221
COC(C)(C)C [2-methoxy-2-methylpropane] + C[n+]1ccn(CCCO)c1.N#CN=C=[N-]	23.2
Cc1ccccc1C [1,2-dimethylbenzene] + C[n+]1ccn(CCCO)c1.N#CN=C=[N-]	11.3
c1ccncc1 [pyridine] + C[n+]1ccn(CCCO)c1.N#CN=C=[N-]	1.41
CC(C)c1ccccc1 [isopropylbenzene] + C[N+]1(CCCO)CCOCC1.N#C[N-]C#N	51.2
C=C(C)c1ccccc1 [(1-methylethenyl)benzene] + C[N+]1(CCCO)CCOCC1.N#C[N-]C#N	18.9
C1COCCO1 [1,4-dioxane] + C[N+]1(CCCO)CCOCC1.N#C[N-]C#N	2.07

State the recorded activity coefficient for every item in the following list.
1. CCCc1ccccc1 [propylbenzene] + C[n+]1ccn(CCCO)c1.N#CN=C=[N-]
2. C#CCCCC [1-hexyne] + C[N+]1(CCCO)CCOCC1.N#C[N-]C#N
3. CCCCCO [pentan-1-ol] + C[n+]1ccn(CCCO)c1.N#CN=C=[N-]
4. C1CCOC1 [tetrahydrofuran] + C[n+]1ccn(CCCO)c1.N#CN=C=[N-]
5. CCOC(C)=O [ethyl acetate] + C[N+]1(CCCO)CCOCC1.N#C[N-]C#N
6. C1=CCCCC1 [cyclohexene] + C[n+]1ccn(CCCO)c1.N#CN=C=[N-]
7. Cc1ccccc1 [toluene] + C[N+]1(CCCO)CCOCC1.N#C[N-]C#N
8. CC(C)CO [2-methyl-1-propanol] + C[N+]1(CCCO)CCOCC1.N#C[N-]C#N

[27.3, 41.6, 4.14, 3.19, 9.78, 34.5, 13.1, 4.54]

Please report the measured activity coefficient for CCCC(=O)OC [methyl butanoate] + C[N+]1(CCCO)CCOCC1.N#C[N-]C#N
15.9

* * *

What activity coefficient was measured for each of the following?
# Procedure summary: activity coefficient (dimensionless); of the first substance listed, at infinite dilution; xn = mol fraction of the nth substance listed
# Experimental parameters: 348.15 K; 101.33 kPa; Liquid; Chromatography; x1 = 0
Give bare numbers.

See these solved cases before continuing.
C#CCCCC [1-hexyne] + C[n+]1ccn(CCCO)c1.N#CN=C=[N-]	20.6
Cc1cccc(C)c1 [1,3-dimethylbenzene] + C[n+]1ccn(CCCO)c1.N#CN=C=[N-]	15.2
CCCC=O [butanal] + C[N+]1(CCCO)CCOCC1.N#C[N-]C#N	4.97
CCC(=O)CC [pentan-3-one] + C[N+]1(CCCO)CCOCC1.N#C[N-]C#N	8.52

State the recorded activity coefficient for every item in the following list.
1. CCCCCCC [heptane] + C[n+]1ccn(CCCO)c1.N#CN=C=[N-]
2. CCCCO [butan-1-ol] + C[n+]1ccn(CCCO)c1.N#CN=C=[N-]

[334, 2.7]

* * *

What activity coefficient was measured for each of the following?
# Procedure summary: activity coefficient (dimensionless); of the first substance listed, at infinite dilution; xn = mol fraction of the nth substance listed
# Experimental parameters: 308.15 K; 101.33 kPa; Liquid; Chromatography; x1 = 0
Numbers only.

See these solved cases before continuing.
CC(C)CC(C)(C)C [2,2,4-trimethylpentane] + C[n+]1ccn(CCCO)c1.N#CN=C=[N-]	662
C1CCCCC1 [cyclohexane] + C[N+]1(CCCO)CCOCC1.N#C[N-]C#N	381

State the recorded activity coefficient for every item in the following list.
1. C=CCCCCCC [oct-1-ene] + C[n+]1ccn(CCCO)c1.N#CN=C=[N-]
2. CCCCCCCC [octane] + C[N+]1(CCCO)CCOCC1.N#C[N-]C#N
3. C#CCCCCCC [1-octyne] + C[n+]1ccn(CCCO)c1.N#CN=C=[N-]
4. CCCOCCC [dipropyl ether] + C[N+]1(CCCO)CCOCC1.N#C[N-]C#N
5. C1CCCCCCC1 [cyclooctane] + C[n+]1ccn(CCCO)c1.N#CN=C=[N-]
6. C#CCCCC [1-hexyne] + C[N+]1(CCCO)CCOCC1.N#C[N-]C#N
7. C1CCCCCC1 [cycloheptane] + C[N+]1(CCCO)CCOCC1.N#C[N-]C#N

1: 331; 2: 1730; 3: 60.2; 4: 218; 5: 198; 6: 44.5; 7: 391

* * *

# Procedure summary: activity coefficient (dimensionless); of the first substance listed, at infinite dilution; xn = mol fraction of the nth substance listed
# Experimental parameters: 298.15 K; 101.33 kPa; Liquid; Chromatography; x1 = 0
Property name: activity coefficient
Give bare numbers.

See these solved cases before continuing.
CCCCCCC [heptane] + C[N+]1(CCCO)CCOCC1.N#C[N-]C#N	1540
CCOC(C)(C)C [2-ethoxy-2-methylpropane] + C[N+]1(CCCO)CCOCC1.N#C[N-]C#N	339
CC(C)CC(C)(C)C [2,2,4-trimethylpentane] + C[n+]1ccn(CCCO)c1.N#CN=C=[N-]	767
CCCCCCCCC [nonane] + C[n+]1ccn(CCCO)c1.N#CN=C=[N-]	1360

State the recorded activity coefficient for every item in the following list.
1. C=CCCCC [hex-1-ene] + C[n+]1ccn(CCCO)c1.N#CN=C=[N-]
2. C1=CCCCC1 [cyclohexene] + C[N+]1(CCCO)CCOCC1.N#C[N-]C#N
3. CCOCC [diethyl ether] + C[N+]1(CCCO)CCOCC1.N#C[N-]C#N
4. CC1CCCCC1 [methylcyclohexane] + C[n+]1ccn(CCCO)c1.N#CN=C=[N-]

1: 123; 2: 121; 3: 59.3; 4: 207

* * *

# Procedure summary: activity coefficient (dimensionless); of the first substance listed, at infinite dilution; xn = mol fraction of the nth substance listed
# Experimental parameters: 318.15 K; 101.33 kPa; Liquid; Chromatography; x1 = 0
Field 'label' (enum: criterion met / criterion not met). Set to criterion met when activity coefficient is strictly under 8; else criterion not met.

CC(C)(C)O [2-methylpropan-2-ol] + C[n+]1ccn(CCCO)c1.N#CN=C=[N-]	criterion met
CCC(C)O (stereo not drawn) [butan-2-ol] + C[N+]1(CCCO)CCOCC1.N#C[N-]C#N	criterion met
CCCO [propan-1-ol] + C[N+]1(CCCO)CCOCC1.N#C[N-]C#N	criterion met
c1ccncc1 [pyridine] + C[N+]1(CCCO)CCOCC1.N#C[N-]C#N	criterion met
CCOCC [diethyl ether] + C[N+]1(CCCO)CCOCC1.N#C[N-]C#N	criterion not met
c1ccncc1 [pyridine] + C[n+]1ccn(CCCO)c1.N#CN=C=[N-]	criterion met

Could you now look at the following compound, please?
API: query returns whether the compound falls strictly under 8 in activity coefficient. Query: c1ccccc1 [benzene] + C[n+]1ccn(CCCO)c1.N#CN=C=[N-]
criterion met

* * *

# Procedure summary: activity coefficient (dimensionless); of the first substance listed, at infinite dilution; xn = mol fraction of the nth substance listed
# Experimental parameters: 328.15 K; 101.33 kPa; Liquid; Chromatography; x1 = 0
Param threshold (20) applies to activity coefficient; output met when value >= threshold, not met when value < threshold.

Consider the worked cases shown below.
CCC(=O)OC [methyl propanoate] + C[n+]1ccn(CCCO)c1.N#CN=C=[N-]	not met
CCC[N+](=O)[O-] [1-nitropropane] + C[n+]1ccn(CCCO)c1.N#CN=C=[N-]	not met

# check: activity coefficient of CCCCCCC [heptane] + C[n+]1ccn(CCCO)c1.N#CN=C=[N-] is greater than or equal to 20
met

# check: activity coefficient of C1COCCO1 [1,4-dioxane] + C[n+]1ccn(CCCO)c1.N#CN=C=[N-] is greater than or equal to 20
not met
